Target: c-Met kinase (recombinant c-Met) (Homo sapiens)
Construct: 0.27 nM recombinant c-Met
Assay: In vitro kinase assay I (homogeneous time-resolved fluorescence tyrosine kinase assay)
Assay type: biochemical
pIC50: −log10 of the molar value.
Quick list: pIC50 per entry.

Illustrative cases are given below, each with its answer.
COCCN1CCC(COC(=O)Nc2cccc(Cc3nn(-c4cccc(C#N)c4)ccc3=O)c2)C1 (racemic) [Example 585] = > 7.00
CCn1cnc(-c2cccc(Cc3nn(-c4cnn(CCO)c4)ccc3=O)c2)n1 [Example 191] = > 7.00
CCOc1cnc(-c2cccc(C(C)c3nn(-c4cccc(C(N)=O)c4)ccc3=O)c2)nc1 (racemic) [Example 738] = > 7.00
Cn1cc(-n2ccc(=O)c(Cc3cccc(-c4ncc(-c5ccnnc5)cn4)c3)n2)cn1 [Example 425] = > 7.00
Cn1cc(-n2ccc(=O)c(Cc3cccc(-c4ncc(-c5ccc(F)cn5)cn4)c3)n2)cn1 [Example 418] = > 7.00

# get_value(readout='pIC50', item= CCOC(=O)Nc1cccc(Cc2nn(-c3cnn(C4CCOCC4)c3)ccc2=O)c1 [Example 91] )
6.00 to 7.00

# get_value(readout='pIC50', item= CCCn1cnc(-c2cccc(Cc3nn(-c4cccc(C#N)c4)ccc3=O)c2)n1 [Example 85] )
> 7.00

# get_value(readout='pIC50', item= Cn1cc(-n2ccc(=O)c(Cc3cccc(-c4ncc(OCc5ncn(C)n5)cn4)c3)n2)cn1 [Example 356] )
> 7.00

# get_value(readout='pIC50', item= Cn1cc(-n2ccc(=O)c(Cc3cccc(-c4ncc(CCC(C)(C)O)cn4)c3)n2)cn1 [Example 437] )
> 7.00

# get_value(readout='pIC50', item= CC(c1cccc(-c2ncc(OCC(C)(C)O)cn2)c1)c1nn(-c2cnn(C)c2)ccc1=O (single isomer, unassigned) [Example 380] )
> 7.00

# get_value(readout='pIC50', item= CC(c1cccc(-c2ncc(OC3COC3)cn2)c1)c1nn(-c2cnn(C)c2)ccc1=O (single isomer, unassigned) [Example 215] )
6.00 to 7.00

# get_value(readout='pIC50', item= CC(C)COC(=O)Nc1cccc(Cc2nn(-c3cnn(CC4CCOCC4)c3)ccc2=O)c1 [Example 102] )
6.00 to 7.00

# get_value(readout='pIC50', item= CN1CCC(COc2cnc(-c3cccc(Cc4nn(-c5cc(F)cc(C#N)c5)ccc4=O)c3)nc2)CC1 [Example 170] )
> 7.00

# get_value(readout='pIC50', item= CN1CCN(CCCOC(=O)Nc2cccc(Cc3nn(-c4cc(F)c(F)c(F)c4)ccc3=O)c2)CC1 [Example 511] )
> 7.00

# get_value(readout='pIC50', item= Cn1cc(-n2ccc(=O)c(Cc3cccc(-c4ncn(CCS(C)(=O)=O)n4)c3)n2)cn1 [Example 714] )
6.00 to 7.00

====

Molecular target: c-Met kinase (recombinant c-Met) (Homo sapiens, UniProt P08581)
Construct: 0.27 nM recombinant c-Met
Sequence (P08581 25-1390): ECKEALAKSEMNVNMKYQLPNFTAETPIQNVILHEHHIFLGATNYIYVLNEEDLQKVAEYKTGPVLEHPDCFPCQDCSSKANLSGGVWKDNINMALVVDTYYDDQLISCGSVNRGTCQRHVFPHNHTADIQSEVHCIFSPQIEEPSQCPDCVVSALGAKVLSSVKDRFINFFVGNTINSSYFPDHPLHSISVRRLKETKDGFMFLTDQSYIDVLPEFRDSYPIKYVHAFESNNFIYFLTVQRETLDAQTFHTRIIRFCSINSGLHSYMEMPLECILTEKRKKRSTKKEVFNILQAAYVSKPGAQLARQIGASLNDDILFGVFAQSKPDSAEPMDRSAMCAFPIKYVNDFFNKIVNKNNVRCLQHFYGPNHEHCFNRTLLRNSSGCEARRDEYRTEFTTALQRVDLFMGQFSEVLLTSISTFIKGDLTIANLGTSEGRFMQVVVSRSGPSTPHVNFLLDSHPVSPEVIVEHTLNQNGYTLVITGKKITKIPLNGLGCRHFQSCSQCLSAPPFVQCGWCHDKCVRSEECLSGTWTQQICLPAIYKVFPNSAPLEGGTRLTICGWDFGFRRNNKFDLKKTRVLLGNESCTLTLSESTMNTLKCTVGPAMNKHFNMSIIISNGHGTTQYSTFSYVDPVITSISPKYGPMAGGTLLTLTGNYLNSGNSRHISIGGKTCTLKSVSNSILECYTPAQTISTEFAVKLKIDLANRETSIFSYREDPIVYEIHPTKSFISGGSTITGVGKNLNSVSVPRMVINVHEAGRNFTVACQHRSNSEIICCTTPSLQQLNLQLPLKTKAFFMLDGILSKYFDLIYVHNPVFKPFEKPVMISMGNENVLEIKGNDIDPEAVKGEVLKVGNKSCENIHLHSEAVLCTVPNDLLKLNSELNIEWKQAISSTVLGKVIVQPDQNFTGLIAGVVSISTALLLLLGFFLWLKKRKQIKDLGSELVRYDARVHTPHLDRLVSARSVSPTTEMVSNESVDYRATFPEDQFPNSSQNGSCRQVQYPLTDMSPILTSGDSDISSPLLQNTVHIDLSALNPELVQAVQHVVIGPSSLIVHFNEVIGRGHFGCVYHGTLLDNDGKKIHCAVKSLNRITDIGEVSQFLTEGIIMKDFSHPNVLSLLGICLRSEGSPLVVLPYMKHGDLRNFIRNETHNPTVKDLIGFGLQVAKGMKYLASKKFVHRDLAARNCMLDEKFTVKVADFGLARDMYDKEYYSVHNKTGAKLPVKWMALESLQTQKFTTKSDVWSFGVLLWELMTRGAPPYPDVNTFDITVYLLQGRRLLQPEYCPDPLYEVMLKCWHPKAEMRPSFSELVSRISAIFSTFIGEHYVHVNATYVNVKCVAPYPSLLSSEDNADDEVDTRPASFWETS
Test: In vitro kinase assay I (homogeneous time-resolved fluorescence tyrosine kinase assay)
pIC50: −log10 of the molar value.
Quick list: pIC50 per entry.

Illustrative cases are given below, each with its answer.
CCn1cc(-n2ccc(=O)c(Cc3cccc(-c4ncc(OCCO)cn4)c3)n2)cn1 [Example 307] = > 7.00
CC(C)c1nc(COc2cnc(-c3cccc(Cc4nn(-c5cnn(C)c5)ccc4=O)c3)nc2)no1 [Example 283] = > 7.00
COCCCOc1cnc(-c2cccc(Cc3nn(-c4ccc(F)c(F)c4)ccc3=O)c2)nc1 [Example 320] = > 7.00
COC(C)(C)COc1cnc(-c2cccc(C(C)c3nn(-c4ccc(F)c(F)c4)ccc3=O)c2)nc1 (single isomer, unassigned) [Example 251] = > 7.00
Cn1cc(-n2ccc(=O)c(Cc3cccc(-c4ncc([C@]5(F)CCNC[C@@H]5O)cn4)c3)n2)cn1 (racemic) [Example 749] = > 7.00
COc1ccnc2ccc(Cc3nn(-c4cnn(C)c4)ccc3=O)cc12 [Example 142] = 6.00 to 7.00
CCOc1cnc(-c2cccc(C(C)c3nn(-c4cnn(CC)c4)ccc3=O)c2)nc1 (single isomer, unassigned) [Example 245] = 6.00 to 7.00
CC1CC1COC(=O)Nc1cccc(Cc2nn(-c3cnn(C)c3)ccc2=O)c1 (mixture of isomers) [Example 574] = > 7.00
Cn1cc(-n2ccc(=O)c(Cc3cccc(NC(=O)OCCC4CCNCC4)c3)n2)cn1 [Example 624] = > 7.00
Cn1cc(-n2ccc(=O)c(Cc3cccc(-c4ncc(OCc5ccccc5)cn4)c3)n2)cn1 [Example 67] = > 7.00

Look up pIC50 with c-Met kinase (recombinant c-Met) (Homo sapiens, UniProt P08581) for this compound: Cn1cc(-n2ccc(=O)c(Cc3cccc(NC(=O)OCC(=O)O)c3)n2)cn1 [Example 629]
5.52 to 6.00

Look up pIC50 with c-Met kinase (recombinant c-Met) (Homo sapiens, UniProt P08581) for this compound: Cc1nc(COc2cnc(-c3cccc(Cc4nn(-c5cnn(C)c5)ccc4=O)c3)nc2)no1 [Example 281]
> 7.00

Look up pIC50 with c-Met kinase (recombinant c-Met) (Homo sapiens, UniProt P08581) for this compound: CC1(COc2cnc(-c3cccc(Cc4nn(-c5ccc(F)c(F)c5)ccc4=O)c3)nc2)COC1 [Example 329]
> 7.00

Look up pIC50 with c-Met kinase (recombinant c-Met) (Homo sapiens, UniProt P08581) for this compound: CCOc1cnc(-c2ccc(F)c(Cc3nn(-c4cnn(C)c4)ccc3=O)c2)nc1 [Example 118]
> 7.00

Look up pIC50 with c-Met kinase (recombinant c-Met) (Homo sapiens, UniProt P08581) for this compound: CCCOC(=O)Nc1cccc(Cc2nn(-c3cccc(Br)c3)ccc2=O)c1 [Example 12]
> 7.00

Look up pIC50 with c-Met kinase (recombinant c-Met) (Homo sapiens, UniProt P08581) for this compound: CC(c1cccc(-c2ncc(OC3CCOCC3)cn2)c1)c1nn(-c2cnn(C)c2)ccc1=O (single isomer, unassigned) [Example 212]
> 7.00

Look up pIC50 with c-Met kinase (recombinant c-Met) (Homo sapiens, UniProt P08581) for this compound: CCOC(=O)Nc1cccc(Cc2nn(-c3cccc(OCC)c3)ccc2=O)c1 [Example 650]
6.00 to 7.00

Look up pIC50 with c-Met kinase (recombinant c-Met) (Homo sapiens, UniProt P08581) for this compound: Cn1cc(-n2ccc(=O)c(Cc3cccc(-c4ncc(CN5CCNCC5)cn4)c3)n2)cn1 [Example 433]
> 7.00

Look up pIC50 with c-Met kinase (recombinant c-Met) (Homo sapiens, UniProt P08581) for this compound: CC1(COC(=O)Nc2cccc(Cc3nn(-c4cc(F)c(F)c(F)c4)ccc3=O)c2)COC1 [Example 560]
> 7.00

Look up pIC50 with c-Met kinase (recombinant c-Met) (Homo sapiens, UniProt P08581) for this compound: Cn1cc(-n2ccc(=O)c(Cc3cccc(-c4ncc(C(=O)NCCCN5CCOCC5)cn4)c3)n2)cn1 [Example 482]
> 7.00

Look up pIC50 with c-Met kinase (recombinant c-Met) (Homo sapiens, UniProt P08581) for this compound: CCOc1cnc(-c2cccc(Cc3nn(-c4ccc(C#N)cc4)ccc3=O)c2)nc1 [Example 137]
> 7.00

====

Target: c-Met kinase (recombinant c-Met) (Homo sapiens, UniProt P08581)
Construct: 0.27 nM recombinant c-Met
Experiment: In vitro kinase assay I (homogeneous time-resolved fluorescence tyrosine kinase assay)
Procedure: The kinase activities of c-Met are measured using a modified version of the homogeneous-time-resolved tyrosine kinase assay described by Park et al. (1999, Anal. Biochem. 269:94-104). The procedure for determining the potency of a compound to inhibit c-Met kinase comprises the following steps: • 1. […] Read HTRF signals on a Victor reader (PerkinElmer) in HTRF mode after 60-min incubation at room temperature in the dark. • 6. […]
readout: IC50

Look up IC50 with c-Met kinase (recombinant c-Met) (Homo sapiens, UniProt P08581) for this compound: CC(C)COC(=O)Nc1cccc(Cc2nn(-c3cnn(CCO)c3)ccc2=O)c1
< 100 nM

Look up IC50 with c-Met kinase (recombinant c-Met) (Homo sapiens, UniProt P08581) for this compound: CCOC(=O)Nc1cccc(Cc2nn(-c3cnn(C4CCOC4)c3)ccc2=O)c1 (racemic)
< 100 nM

Look up IC50 with c-Met kinase (recombinant c-Met) (Homo sapiens, UniProt P08581) for this compound: Cn1cc(-n2ccc(=O)c(Cc3cccc(NC(=O)OCC(F)(F)F)c3)n2)cn1
< 100 nM

Look up IC50 with c-Met kinase (recombinant c-Met) (Homo sapiens, UniProt P08581) for this compound: Cn1cc(-n2ccc(=O)c(Cc3cccc(-c4nccs4)c3)n2)cn1
100 to 1000 nM

Look up IC50 with c-Met kinase (recombinant c-Met) (Homo sapiens, UniProt P08581) for this compound: CCNC(=O)c1cnc(-c2cccc(Cc3nn(-c4cnn(C)c4)ccc3=O)c2)nc1
< 100 nM

Look up IC50 with c-Met kinase (recombinant c-Met) (Homo sapiens, UniProt P08581) for this compound: COCCn1cc(-n2ccc(=O)c(Cc3cccc(NC(=O)OCC(C)C)c3)n2)cn1
< 100 nM

Look up IC50 with c-Met kinase (recombinant c-Met) (Homo sapiens, UniProt P08581) for this compound: COCCCn1cnc(-c2cccc(Cc3nn(-c4cnn(C)c4)ccc3=O)c2)n1
< 100 nM

Look up IC50 with c-Met kinase (recombinant c-Met) (Homo sapiens, UniProt P08581) for this compound: O=C(Nc1cccc(Cc2nn(-c3cc(F)cc(F)c3)ccc2=O)c1)OCCN1CCOCC1
< 100 nM

Look up IC50 with c-Met kinase (recombinant c-Met) (Homo sapiens, UniProt P08581) for this compound: Cn1cc(-n2ccc(=O)c(Cc3cccc(-c4noc(CN5CCOCC5)n4)c3)n2)cn1
100 to 1000 nM
